- Test system: Wild type
- Procedure Details: S. aureus survival, RN4220 and DeltatarO strains – OD600, teichoic acid synthesis inhibitors, primary screen (AID 463173)
- Run Parameters: S. aureus RN4220 wild type/DeltatarO growth, OD600, 18 h, active compounds read low, screened at 18.75 µg/mL (by protocol)
Out of some 52,000 compounds screened, about 1,700 (3.3%) were called active. The sample holds actives, similar compounds and a random draw of the others, so the mix is not that of the screen.
The label class 1 is reserved for survival strictly under 80%; class 0 covers values equal to or above it.

Hello, is survival of the following molecule strictly smaller than 80%? CC(=O)Nc1ccc(S(=O)(=O)N2CCN(Cc3ccccc3Cl)CC2)cc1 class 0

I'd appreciate it if you could check whether Cc1ccc(NC(=O)c2sc3ccccc3c2Cl)cc1 has survival smaller than 80%. class 1

Does CCOc1ccc(CNC(=O)c2cnc3sc(N(CC)CC)nn3c2=O)cc1 have survival strictly under 80%? class 1

In plain terms, does COc1ccc(-c2nn3c(-c4ccccc4C)nnc3c3ccccc23)cc1 come in under 80% for survival? class 1

Hello, is survival of the following molecule strictly smaller than 80%? Cc1cccc(NC(=O)c2sc3cccc(Cl)c3c2Cl)c1 class 1
